TESTED TARGET: purified human FAP antigen (human, UniProt Q12884 26-760, limits assumed)
MEASUREMENT NOTES: ELISA, plate coated with purified human FAP antigen (FIG. 56A-56C)
READOUT LABEL: Kd

Example entries begin here.
IAB16M2-31 (other) QVQLVQSGAEVKKPGASVKVSCKASGYTFTEYTIHWVRQAPGQRLEWIGGINPNNGIPNYNQKFKGRVTITVDTSASTAYMELSSLRSEDTAVYYCARRRIAYGYDEGHAMDYWGQGTLVTVSSGSTSGGGSGGGSGGGGSSDIVMTQSPDSLAVSLGERATINCKSSQSLLYSRNQKNYLAWYQQKPGQPPKLLIFWASTRESGVPDRFSGSGSGTDFTLTISSLQAEDFAVYYCQQYYSYPLTFGQGTKVEIKEPKSSDKTHTCPPCPPCGGGSSGGGSGGQPREPQVYTLPPSREEMTKNQVSLTCLVKGFYPSDIAVEWESNGQPENNYKTTPPVLDSDGSFFLYSKLTVDKSRWQQGNVFSCSVMHEALHNHYTQKSLSLSPG
~100 pM
IAB16M2-37 (other, also called IAB16B2-37) QVQLVQSGAEVKKPGASVKVSCKASGYTFTEYTIHWVRQAPGQRLEWIGGINPNNGIPNYNQKFKGRVTITVDTSASTAYMELSSLRSEDTAVYYCARRRIAYGYDEGHAMDYWGQGTLVTVSSGSTSGGGSGGGSGGGGSSDIVMTQSPDSLAVSLGERATINCKSSQSLLYSRNQKNYLAWYQQKPGQPPKLLIFWASTRESGVPDRFSGSGSGTDFTLTISRLEPEDFAVYYCQQYYSYPLTFGQGTKVEIKEPKSSDKTHTCPPCPPCGGGSSGGGSGGQPREPQVYTLPPSREEMTKNQVSLTCLVKGFYPSDIAVEWESNGQPENNYKTTPPVLDSDGSFFLYSKLTVDKSRWQQGNVFSCSVMHEALHNHYTQKSLSLSPG
~100 pM

Here's the next entry for you.
Q: Look at this binder and give its reported Kd. IAB16M1-32 (other) DIVMTQSPDSLAVSLGERATINCKSSQSLLYSRNQKNYLAWYQQKPGQPPKLLIFWASTRESGVPDRFSGSGFGTDFTLTISRLEPEDFAVYYCQQYFSYPLTFGQGTKVEIKGSTSGGGSGGGSGGGGSSQVQLVQSGAEVKKPGASVKVSCKTSRYTFTEYTIHWVRQAPGQRLEWIGGINPNNGIPNYNQKFKGRVTITVDTSASTAYMELSSLRSEDTAVYYCARRRIAYGYDEGHAMDYWGQGTLVTVSSEPKSSDKTHTCPPCPPCGGGSSGGGSGGQPREPQVYTLPPSREEMTKNQVSLTCLVKGFYPSDIAVEWESNGQPENNYKTTPPVLDSDGSFFLYSKLTVDKSRWQQGNVFSCSVMHEALHNHYTQKSLSLSPG
A: ~100 pM
